// provenance: the nanobody polyreactivity screen of Harvey et al. (2022)

experiment summary: yeast display, Sf9 membrane polyspecificity reagent, FACS + sequencing; frameworks hold sequencing errors
readout type: polyreactivity (PSR sort gate)

Q: Could you share which polyreactivity (PSR sort gate) value was measured for QVHLVESGGGLVQAGGILRLSCAASGSIFLYYAMGWYRQAPGKERELVAAITGGGGTNYADSVKGRFTISRDNAKNTFYLQMNSLKPEDTAVYYCGADPSGQFPYSYYNYDYDYWGQGTQVTVSS ?
Result: low polyreactivity

Q: Could you share which polyreactivity (PSR sort gate) value was measured for QVQLVESGGGLVQAGGSLRLSCAASGSISGYYAMGWYRQAPGKERELVASIRYTGARTYYADSVKGRFTSSRDNAKNTVYLQMNRLKPEDTAVFYCAADKVQYEGDAYGPPQYDYWGQGTQVTVSS ?
Result: low polyreactivity

Q: Could you share which polyreactivity (PSR sort gate) value was measured for PVQLVESGGGLVQAGGSLRISCAASGSIFRVNAMGWYRQAPGKERELVAAITTNGGSTYYADSVKGRFTISRDNAKNTVYLQMNSLKPEDTAVYYCAADYSLPWSWLYEYWGQGTQVTVSS ?
Result: low polyreactivity
